B1: WW domain-containing transcription regulator protein 1, residues 116 to 162; numbered along this chain, Q9GZV5 (parent)
chain: QSYDVTDELPLPPGWEMTFTATGQRYFLNHIEKITTWQDPRKAMNQP

- Variants of: B1
- method: abundance fitness (aPCA) (normalised: wild type 0, dead -1); higher = more abundant; growth selection in yeast, the domain comes from the species named
- run_parameters: Homo sapiens
Collected abundance fitness values appear next to each entry.
No unit in the answer, please; the number alone is enough.

Here are 6 variants together with their reported answers.
{"alteration": "P12Q", "abundance fitness": -0.494}
{"alteration": "Q46M", "abundance fitness": -0.098}
{"alteration": "M17W", "abundance fitness": -0.369}
{"alteration": "N45I", "abundance fitness": -0.084}
{"alteration": "Q24N", "abundance fitness": -0.164}
{"alteration": "T6N", "abundance fitness": -0.198}

Then this variant:
Exam item: Which abundance fitness reading was recorded for the variant Y3Q ?
Marked response: -0.2
